- experimental.system: UBE2K; further: test concentration or dose not given here
- assay.comment: reporter assay of Huesken 2005
- reported.conditions: siRNA
Oligonucleotides are given in HELM: sugar(base)linkage, 5' to 3'; d 2'-deoxyribose, r ribose, m 2'-O-methylribose, p phosphate. ss, as = sense and antisense strand
observed.property: normalised inhibition (eCFP-eYFP dual reporter)

Known normalised inhibition (eCFP-eYFP dual reporter) results, listed for orientation:
INSERT INTO results (substance, value_reported) VALUES
  ('RNA1{r(U)p.r(C)p.r(C)p.r(A)p.r(G)p.r(A)p.r(C)p.r(A)p.r(C)p.r(A)p.r(C)p.r(C)p.r(A)p.r(U)p.r(A)p.r(U)p.r(G)p.r(A)p.r(A)p.d(T)p.d(T)}|RNA2{r(U)p.r(U)p.r(C)p.r(A)p.r(U)p.r(A)p.r(U)p.r(G)p.r(G)p.r(U)p.r(G)p.r(U)p.r(G)p.r(U)p.r(C)p.r(U)p.r(G)p.r(G)p.r(A)p.d(G)p.d(G)}$$$RNA1{StrandType:ss}|RNA2{StrandType:as}$', '73.9%'),
  ('RNA1{r(A)p.r(G)p.r(A)p.r(C)p.r(A)p.r(C)p.r(A)p.r(C)p.r(C)p.r(A)p.r(U)p.r(A)p.r(U)p.r(G)p.r(A)p.r(A)p.r(G)p.r(G)p.r(A)p.d(T)p.d(T)}|RNA2{r(U)p.r(C)p.r(C)p.r(U)p.r(U)p.r(C)p.r(A)p.r(U)p.r(A)p.r(U)p.r(G)p.r(G)p.r(U)p.r(G)p.r(U)p.r(G)p.r(U)p.r(C)p.r(U)p.d(G)p.d(G)}$$$RNA1{StrandType:ss}|RNA2{StrandType:as}$', '81%'),
  ('RNA1{r(A)p.r(A)p.r(A)p.r(A)p.r(U)p.r(A)p.r(U)p.r(G)p.r(G)p.r(C)p.r(A)p.r(U)p.r(C)p.r(C)p.r(U)p.r(A)p.r(A)p.r(U)p.r(A)p.d(T)p.d(T)}|RNA2{r(U)p.r(A)p.r(U)p.r(U)p.r(A)p.r(G)p.r(G)p.r(A)p.r(U)p.r(G)p.r(C)p.r(C)p.r(A)p.r(U)p.r(A)p.r(U)p.r(U)p.r(U)p.r(U)p.d(A)p.d(G)}$$$RNA1{StrandType:ss}|RNA2{StrandType:as}$', '67.3%');

In: I am curious: what normalised inhibition (eCFP-eYFP dual reporter) value has been reported for `RNA1{r(A)p.r(C)p.r(U)p.r(A)p.r(A)p.r(A)p.r(A)p.r(U)p.r(A)p.r(U)p.r(G)p.r(G)p.r(C)p.r(A)p.r(U)p.r(C)p.r(C)p.r(U)p.r(A)p.d(T)p.d(T)}|RNA2{r(U)p.r(A)p.r(G)p.r(G)p.r(A)p.r(U)p.r(G)p.r(C)p.r(C)p.r(A)p.r(U)p.r(A)p.r(U)p.r(U)p.r(U)p.r(U)p.r(A)p.r(G)p.r(U)p.d(G)p.d(A)}$$$RNA1{StrandType:ss}|RNA2{StrandType:as}$` ?
Out: 76%

In: Request the reported normalised inhibition (eCFP-eYFP dual reporter) associated with `RNA1{r(G)p.r(G)p.r(G)p.r(G)p.r(C)p.r(U)p.r(A)p.r(U)p.r(U)p.r(U)p.r(G)p.r(U)p.r(U)p.r(U)p.r(G)p.r(G)p.r(A)p.r(U)p.r(A)p.d(T)p.d(T)}|RNA2{r(U)p.r(A)p.r(U)p.r(C)p.r(C)p.r(A)p.r(A)p.r(A)p.r(C)p.r(A)p.r(A)p.r(A)p.r(U)p.r(A)p.r(G)p.r(C)p.r(C)p.r(C)p.r(C)p.d(T)p.d(G)}$$$RNA1{StrandType:ss}|RNA2{StrandType:as}$`
Out: 81.2%
